Where do these numbers come from? They come from ChEMBL document CHEMBL4270561.

# measurement-description: Selectivity index, ratio of IC50 for human MCF10A cells to IC50 for human SK-BR-3 cells
# Format: toxicity
# conditions-used: MCF10A cells versus SK-BR-3 cells, read-out: Ratio IC50
parameter: selectivity ratio
Enter a number only.

Would you please look over these solved cases?
{"compound": "CCNC(=O)O[C@@H]1C=C[C@]2(O[C@H]([C@@H](CC)C(=O)[C@@H](C)[C@@H](O)[C@H](C)[C@@H]3O[C@@H]([C@@H](CC)C(=O)OCC(F)(F)F)CC[C@@H]3C)[C@@H](C)C[C@H]2C)O[C@@]12CC[C@@](C)([C@H]1CC[C@](O)(CC)[C@H](C)O1)O2", "selectivity ratio": 0.94}
{"compound": "CC[C@@H](C(=O)[C@@H](C)[C@@H](O)[C@H](C)[C@@H]1O[C@@H]([C@@H](CC)C(=O)NCCc2ccc(F)cc2)CC[C@@H]1C)[C@H]1O[C@]2(C=C[C@@H](O)[C@]3(CC[C@@](C)([C@H]4CC[C@](O)(CC)[C@H](C)O4)O3)O2)[C@H](C)C[C@@H]1C", "selectivity ratio": 7.1}
{"compound": "CC[C@@H](C(=O)[C@@H](C)[C@@H](O)[C@H](C)[C@@H]1O[C@@H]([C@@H](CC)C(=O)O)CC[C@@H]1C)[C@H]1O[C@]2(C=C[C@@H](O)[C@]3(CC[C@@](C)([C@H]4CC[C@](O)(CC)[C@H](C)O4)O3)O2)[C@H](C)C[C@@H]1C [SALINOMYCIN]", "selectivity ratio": 52}

Below: the item to evaluate.
Notebook: C#CCNC(=O)[C@H](CC)[C@H]1CC[C@H](C)[C@H]([C@@H](C)[C@H](O)[C@H](C)C(=O)[C@H](CC)[C@H]2O[C@]3(C=C[C@@H](OC(C)=O)[C@]4(CC[C@@](C)([C@H]5CC[C@](O)(CC)[C@H](C)O5)O4)O3)[C@H](C)C[C@@H]2C)O1 , selectivity ratio read as 7.7
